Value source: patent US8895744B2

- Tested on: ALK-negative U937 cells
- TEST_DESCRIPTION: Tritiated thymidine uptake cell proliferation assay, U937 (control)
- Type: cell-based
- CONDITION_NOTES: Homo sapiens, U-937; 3[H]-thymidine uptake, 72 h
pIC50: −log10 of the molar value.
ENDPOINT_LABEL: pIC50

Reference set, count: 2
CCN(CC)CCCOc1ccc(-c2ccc3[nH]c4ncc(C=Cc5ccccc5)cc4c3c2)cc1 [R340]    6.30
C(#Cc1ccc2c(n1)[nH]c1ccccc12)c1ccccc1 [R342, 2-(phenylethynyl)-9H-pyrido[2,3-b]indole]    4.48

(I) CCN(CC)CCCOc1ccc(-c2ccc3[nH]c4ncc(/C=C/c5ccccc5)cc4c3c2)cc1 [R338]
(II) O=[N+]([O-])c1ccccc1Nc1ccnc2[nH]c3ccccc3c12 [R323]
(III) c1ccc(CCc2ccc3[nH]c4ncc(-c5ccc6c(c5)OCO6)cc4c3c2)cc1 [R354]
(IV) CN1CCN(CCOc2ccc(-c3ccc4[nH]c5ncc(Cl)cc5c4c3)cc2)CC1 [R347]
(V) O=[N+]([O-])c1ccccc1Nc1ccc2c(n1)[nH]c1ccc(/C=C/c3ccccc3)cc12 [R332]
stdin: Sort entries by pIC50 from minimum to maximum value. Put the labels in the requested order and write them down.
stdout: III, II, IV, V, I

* * *

Property: GI50; scope: individual compounds
- SYSTEM_UNDER_TEST: BaF3 cells transformed with the oncogenic fusion protein NPM/ALK (Homo sapiens)
- Construct: fused on or other part: P06748 (Nucleophosmin)
- Sequence (Q9UM73 whole entry, change not shown, the tested form may be a part): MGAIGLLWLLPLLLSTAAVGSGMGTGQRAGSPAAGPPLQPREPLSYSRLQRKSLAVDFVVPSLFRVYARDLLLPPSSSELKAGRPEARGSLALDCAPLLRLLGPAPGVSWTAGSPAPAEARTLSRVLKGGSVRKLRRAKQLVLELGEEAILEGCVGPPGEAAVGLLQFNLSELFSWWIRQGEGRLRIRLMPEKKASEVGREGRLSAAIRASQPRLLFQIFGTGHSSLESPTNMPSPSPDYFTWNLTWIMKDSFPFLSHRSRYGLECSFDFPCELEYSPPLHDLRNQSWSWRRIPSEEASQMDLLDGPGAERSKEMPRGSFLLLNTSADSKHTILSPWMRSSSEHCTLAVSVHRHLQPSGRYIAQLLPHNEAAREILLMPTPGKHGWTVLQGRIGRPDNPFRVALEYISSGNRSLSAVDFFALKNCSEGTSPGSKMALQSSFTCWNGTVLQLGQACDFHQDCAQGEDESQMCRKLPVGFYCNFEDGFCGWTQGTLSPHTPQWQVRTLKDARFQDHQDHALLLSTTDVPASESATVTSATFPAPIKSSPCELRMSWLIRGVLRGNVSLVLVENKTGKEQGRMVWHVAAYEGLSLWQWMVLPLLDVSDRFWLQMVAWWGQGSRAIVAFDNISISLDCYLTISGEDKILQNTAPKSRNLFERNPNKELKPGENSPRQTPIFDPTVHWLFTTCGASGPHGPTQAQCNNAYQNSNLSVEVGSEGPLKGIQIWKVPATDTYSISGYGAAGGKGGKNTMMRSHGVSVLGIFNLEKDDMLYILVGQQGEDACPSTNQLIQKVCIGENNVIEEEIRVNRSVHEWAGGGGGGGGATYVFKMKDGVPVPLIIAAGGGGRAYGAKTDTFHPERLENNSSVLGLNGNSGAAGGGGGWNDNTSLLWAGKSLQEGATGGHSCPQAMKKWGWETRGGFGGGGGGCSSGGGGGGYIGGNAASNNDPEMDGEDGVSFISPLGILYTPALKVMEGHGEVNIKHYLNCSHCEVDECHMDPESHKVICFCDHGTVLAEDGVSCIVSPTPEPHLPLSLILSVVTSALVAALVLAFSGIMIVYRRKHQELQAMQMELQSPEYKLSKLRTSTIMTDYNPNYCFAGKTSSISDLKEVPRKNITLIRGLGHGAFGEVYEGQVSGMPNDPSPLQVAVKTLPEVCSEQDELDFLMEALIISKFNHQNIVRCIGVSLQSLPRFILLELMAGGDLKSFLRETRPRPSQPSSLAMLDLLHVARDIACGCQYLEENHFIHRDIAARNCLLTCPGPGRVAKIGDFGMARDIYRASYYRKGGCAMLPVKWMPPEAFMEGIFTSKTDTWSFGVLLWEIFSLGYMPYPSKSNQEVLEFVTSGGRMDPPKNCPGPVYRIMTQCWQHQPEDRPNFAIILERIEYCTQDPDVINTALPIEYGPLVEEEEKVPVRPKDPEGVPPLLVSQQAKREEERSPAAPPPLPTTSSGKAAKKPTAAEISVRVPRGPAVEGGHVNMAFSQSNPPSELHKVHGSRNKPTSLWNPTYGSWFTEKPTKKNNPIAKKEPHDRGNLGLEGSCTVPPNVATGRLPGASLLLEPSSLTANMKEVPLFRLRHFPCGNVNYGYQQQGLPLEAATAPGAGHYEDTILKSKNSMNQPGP
- TEST_DESCRIPTION: Tritiated thymidine uptake cell proliferation assay, BaF3 NPM/ALK
- Type: cell-based
- CONDITION_NOTES: 3[H]-thymidine uptake, 72 h; read-out: BaF NPM/ALK IC50

Reference set, count: 2
C(#Cc1ccc2c(n1)[nH]c1ccccc12)c1ccccc1 [R342, 2-(phenylethynyl)-9H-pyrido[2,3-b]indole]    > 180 µM
Clc1cnc2[nH]c3ccc(CCc4ccccc4)cc3c2c1 [R351]    > 100 µM

API: the following record is the query input.
stdin: Identify measured GI50 associated with C(=C\c1cnc2[nH]c3ccccc3c2c1)/c1ccccc1 [R281]
stdout: > 100 µM

* * *

- SYSTEM_UNDER_TEST: Recombinant Abl T315I protein (Homo sapiens, UniProt P00519, T315I)
- TEST_DESCRIPTION: Abl T315I mutant kinase inhibitory activity, ELISA-based in vitro kinase assay
- CONDITION_NOTES: purified Abl T315I, 0.3 mM ATP
ENDPOINT_LABEL: IC50

Reference set, count: 3
C(=C\c1ccc2c(n1)[nH]c1ccccc12)/c1ccccc1 [R300]    > 100 µM
CN(C)CCSCC(=O)c1ccc2[nH]c3ncccc3c2c1 [R263]    > 100 µM
C(=C\c1cnc2[nH]c3ccc(-c4ccc(CN5CCOCC5)cc4)cc3c2c1)/c1ccccc1 [R314]    > 50 µM

stdin: Identify measured IC50 associated with O=C(CSc1cccc(Br)c1)c1ccc2[nH]c3ncc(Cl)cc3c2c1 [R279]
stdout: > 100 µM

* * *

- SYSTEM_UNDER_TEST: Recombinant ALK kinase (Homo sapiens)
- Construct: made in house; host or cells: Sf9 insect cells (baculovirus)
- TEST_DESCRIPTION: ALK kinase inhibitory activity, ELISA-based in vitro kinase assay
- Format: biochemical
- CONDITION_NOTES: purified rALK, 0.3 mM ATP, read-out: ALK IC50
pIC50: −log10 of the molar value.
Property: pIC50; scope: individual compounds

Reference set, count: 2
C(=C\c1ccc2c(n1)[nH]c1ccc(-c3ccc(CN4CCOCC4)cc3)cc12)/c1ccccc1 [R316]    < 4.48
c1c[nH]c(-c2ccc3c(n2)[nH]c2ccccc23)c1 [R355]    < 4.00

API: the following record is the query input.
stdin: Identify measured pIC50 associated with O=[N+]([O-])c1cccc(-c2ccnc3[nH]c4ccccc4c23)c1 [R331, 4-(3-nitrophenyl)-9H-pyrido[2,3-b]indole]
stdout: < 4.00
